Molecular target: HIV-1 THRO.18 Env (HIV-1)
Assay: cell-based or functional assay
Readout Type: IC50, TZM-bl pseudovirus neutralization (µg/mL)
Report only the number, with the unit µg/mL understood.

Prompt line: Reported IC50, TZM-bl pseudovirus neutralization for 1469_M23 (PG16) (TCN-118) (antibody, V domains shown) VH: QEKLVESGGGVVQPGGSLRLSCLASGFTFHKYGMHWVRQAPGKGLEWVALISDDGMRKYHSDSMWGRVTISRDNSKNTLYLQFSSLKVEDTAMFFCAREAGGPIWHDDVKYYDFNDGYYNYHYMDVWGKGTTVTVSS VL: QSALTQPASVSGSPGQTITISCNGTRSDVGGFDSVSWYQQSPGRAPKVMVFDVSHRPSGISNRFSGSKSGNTASLTISGLHIEDEGDYFCSSLTDRSHRIFGGGTKLTVLG : what is it?
Response line: 7.01

Prompt line: What about 1456_A12 (PG16) (TCN-117) (antibody, V domains shown) VH: HEQLVEAGGGVVQPGGSLRLSCLASGFTFHKYGMHWVRQAPGKGLEWVALISDDGMRKYHSDSMWGRVTISRDNSKNTLYLQFSSLRVEDTAMFFCAREAGGPIWHDDVKYYDFNDGYYNYHYMDVWGKGTKVTVSS VL: QSALTQPASVSGSPGQTITISCNGTSRDVGGFDSVSWYQQSPGKAPKVMVFDVSHRPSGMSNRFSGSKSGNTASLTISGLHIEDEGDYFCSSLTDRSHRIFGGGTKLTVLG ?
Response line: 2.08

Prompt line: What about 1503_H05 (PG16) (TCN-119) (antibody, V domains shown) VH: QEKLVESGGGVVQPGGSLRLSCLASGFTFHKYGMHWVRQAPGKGLEWVALISDDGMRKYHSDSMWGRVTISRDNSKNTLYLQFSSLKVEDTAMFFCAREAGGPIWHDDVKYYDFNDGYYNYHYMDVWGKGTIVTVSS VL: QSALTQPASVSGSPGQTITISCNGTRSDVGGFDSVSWYQQSPGKAPKVMVFDVSHRPSGISNRFSGSKSGNTASLTISGLHIEDEGDYFCSSLTDRSHRIFGGGTKVTVLG ?
Response line: 4.12

Prompt line: What about 1489_I13 (PG16) (TCN-120) (antibody, V domains shown) VH: QEQLLESGGGVVQPGGSLRLSCLASGFTFHKYGMHWVRQAPGKGLEWVALISDDGMRKYHSNSMWGRVTISRDNSKNTLYLQFSSLKVEDTAMFFCAREAGGPIWHDDVKYYDFNDGYYNYHYMDVWGKGTTVTVSS VL: QSALTQPASVSGSPGQTITISCNGTSSDVGGFDSVSWYQQSPGKAPKVMVFDVSHRPSGISNRFSGSKSGNTASLTISGLHIEDEGDYFCSSLTDRSHRIFGGGTKVTVLG ?
Response line: 7.41
